- Measurement protocol: Cytotoxicity against human A375P cells
- Format: functional, cell-based
Value type: pIC50
In plain terms, pIC50 is the concentration in mol/L turned into minus its base-10 logarithm.

Input line: I have this compound here, CNC(=O)c1cc(Oc2ccc(NC(=O)Nc3ccc(Cl)c(C(F)(F)F)c3)cc2)ccn1 , and I need its recorded pIC50.
Output line: 7.02

Input line: What about CCN1CCN(Cc2ccc(NC(=O)Nc3ccc(-n4ccc5c(NC(=O)c6ccccc6)nccc54)cc3)cc2C(F)(F)F)CC1 ?
Output line: 7.00

---

- Measurement protocol: Cmax in female mouse plasma
- Assay type: ADME, cell-free
Value type: Cmax (ng/mL)
A number alone suffices; assume ng/mL.

Input line: Look at this molecule and give its reported Cmax. Cc1ccc(NC(=O)c2ccc(CN3CCN(C)CC3)cc2)cc1Nc1nccc(-c2cccnc2)n1
Output line: 1080
